quantity_name: logP

* COc1ccc(S(N)(=O)=O)c(NC(=O)C(C)C)c1 | 1.37
* Cc1ccc(S(N)(=O)=O)c(NC(=O)C(C)C)c1 | 1.45
* COc1ccc(S(=O)(=O)NC(=O)C(C)C)c(N)c1 | 1.58
* CCC(CC)C(=O)NS(=O)(=O)c1ccc(C)cc1[N+](=O)[O-] | 2.67
* CC(C)C(=O)NS(=O)(=O)c1ccccc1N | 1.17
* CCC(CC)C(=O)Nc1ccccc1S(N)(=O)=O | 1.62

----------
logP values, listed per item
quantity_name: logP

- CCC(CC)C(=O)Nc1cc(C(F)(F)F)ccc1S(N)(=O)=O: 3.06
- CC(C)C(=O)Nc1cc(Cl)ccc1S(N)(=O)=O: 1.87
- CCC(CC)C(=O)Nc1cc(C)ccc1S(N)(=O)=O: 2.13
- Cc1ccc(S(=O)(=O)NC(=O)C(C)C)c(N)c1: 1.65
- CCC(CC)C(=O)NS(=O)(=O)c1ccccc1[N+](=O)[O-]: 2.17
- CCC(CC)C(=O)NS(=O)(=O)c1ccc(OC)cc1N: 2.03
- CCC(CC)C(=O)Nc1cc(OC)ccc1S(N)(=O)=O: 2.01
- CC(C)C(=O)NS(=O)(=O)c1ccccc1[N+](=O)[O-]: 1.72
- CC(C)C(=O)Nc1ccccc1S(N)(=O)=O: 0.97
- CCC(CC)C(=O)NS(=O)(=O)c1ccccc1N: 1.64
- Cc1ccc(S(=O)(=O)NC(=O)C(C)C)c([N+](=O)[O-])c1: 2.17
- CCC(CC)C(=O)NS(=O)(=O)c1cc([N+](=O)[O-])cc(C(F)(F)F)c1: 3.57
